Provenance of the data: PubChem BioAssay (EPA / NIEHS)

# ASSAY_TARGET: human Raf-1 Proto-Oncogene, serine/threonine Kinase (RAF1), RAF1 (gene 5894)
# EXPERIMENTAL_PROTOCOL: NVS_ENZ_hRAF1: NovaScreen (NVS) Enzymatic Assay for human Raf-1 Proto-Oncogene, serine/threonine Kinase (RAF1) (AID 2283216)
Inconclusive results are not listed. Active and inactive are the calls of the source. The calls were made as follows: active = hit-call score of the fitted dose curve at least 0.9, where 1 is the maximum; inconclusive = response in the unintended direction; inactive = score below 0.9.
Entry note: the call must match one of TRUE = active, FALSE = inactive

Prompt: Which outcome did this test record for the molecule "CC(C)O.CC(C)O.OCCN(CCO)CCO.OCCN(CCO)CCO.[Ti]" ?
Completion: FALSE

Prompt: State the result this test recorded for "Oc1cc(Cl)c(Cl)cc1Cl" .
Completion: FALSE

Prompt: Test call for this molecule, please: "Clc1cccc(Cl)c1Cl"
Completion: FALSE

Prompt: Lab log entry: "CCCCCCCCCCCCc1cccc(S(=O)(=O)O)c1" — outcome as called in the assay?
Completion: TRUE

Prompt: Hello, I am checking results. What call was entered for "O=C(O)CC(O)(CC(=O)O)C(=O)O" ?
Completion: FALSE

----------
# Read-out: CD40, CD40 (gene 958)
# EXPERIMENTAL_PROTOCOL: BSK_LPS_CD40: BioMAP Diversity Plus: LPS Assay for CD40 Biomarker Activity (AID 2283076)
# EXPERIMENTAL_SETUP: primary human HUVEC with PBMC; actives raise or lower the signal
Activity calls are given as the source filed them. How the source made its calls: active means hit-call score of the fitted dose curve at least 0.9, where 1 is the maximum; inactive means score below 0.9.
Pick one and only one: yes for active, no for inactive

Prompt: Entry N#CCCC(Br)(C#N)CBr (centres undefined) : call = ?
Completion: yes

Prompt: Given "Clc1cccc(Cl)c1" , state the outcome it received in this test.
Completion: no

Prompt: Please share the test call associated with "O=C(Cc1ccccc1)OCCc1ccccc1" .
Completion: no

Prompt: # outcome recorded in this test, key = "CCOC(=O)CC(=O)CCl"
Completion: yes

Prompt: Per the assay record, what outcome was assigned to "OCCN(CCO)CCO" ?
Completion: no

Prompt: Each compound tested received a call. Report the one for "Cc1ccccc1OP(=O)(Oc1ccccc1)Oc1ccccc1" .
Completion: yes

Prompt: Hi team, can someone confirm the assay call for "O=C(O)COc1cc(Cl)c(Cl)cc1Cl" ?
Completion: no

Prompt: How did this test come out for "CN(C)C(=S)S" ?
Completion: no

Prompt: Hi team, can someone confirm the assay call for "Oc1ccc(Cc2ccc(O)cc2)cc1" ?
Completion: no

Prompt: How did this test come out for "CCCCCCCCCCCCc1cccc(S(=O)(=O)O)c1" ?
Completion: no

Prompt: Record request — test call for "Cc1ccc(OP(=O)(Oc2ccc(C)cc2C)Oc2ccc(C)cc2C)c(C)c1"
Completion: yes

Prompt: Outcome logged for C#CCOC(=O)/C=C(C)/C=C/CC(C)CCCC(C)C (centres undefined) in this assay:
Completion: yes

Prompt: Recorded test call requested for CCC(C)(C#N)N=NC(C)(C#N)CC (centres undefined)
Completion: no

Prompt: Look up the recorded call for "O=[N+]([O-])c1ccc(Nc2ccccc2)cc1" in this test.
Completion: no

Prompt: Which outcome was entered for the compound "Cc1cc(C)cc(C)c1" in this test?
Completion: no

Prompt: // outcome(item) with item = "Cc1cc(C(C)(C)c2ccc(O)c(C)c2)ccc1O"
Completion: yes

Prompt: Hi, do you know how "NC(=O)CCl" came out in this test?
Completion: no

Prompt: How did this test come out for "O=C(CCl)NCO" ?
Completion: no

Prompt: Query: recorded result category for "CC(C)O.CC(C)O.OCCN(CCO)CCO.OCCN(CCO)CCO.[Ti]" in this test
Completion: no

Prompt: Hi, do you know how "O=[N+]([O-])c1cccc2ccccc12" came out in this test?
Completion: no

Prompt: Could you please tell me the result logged for OC(Cc1ccccc1Cl)(Cn1cncn1)C1(Cl)CC1 (centres undefined) in this assay?
Completion: no

Prompt: Check the results log: what was the call for "CC(C)N(C(=O)CCl)c1ccccc1" ?
Completion: yes

Prompt: Could you please tell me the result logged for CC(C)(COCC1CO1)COCC1CO1 (centres undefined) in this assay?
Completion: no

Prompt: Field: outcome | Entry: "O=C(N[C@H]1CN2CCC1CC2)c1ccc2c(c1)OCCO2"
Completion: no

Prompt: Please state the recorded outcome for this compound: "O=S(=O)(c1ccc(Cl)cc1)c1cc(Cl)c(Cl)cc1Cl"
Completion: no

Prompt: Test call, this compound: CC(C)=CC1C(C(=O)OCc2cccc(Oc3ccccc3)c2)C1(C)C (centres undefined)
Completion: no

Prompt: What is the recorded call for this compound in the test? CCOC(=O)C(SP(=S)(OC)OC)c1ccccc1 (centres undefined)
Completion: no

Prompt: Fill in: this test's call for "CCCCN(CCCC)C(=S)[S-].CCCCN(CCCC)C(=S)[S-].[Ni+2]" is ___
Completion: no

Prompt: Tell me the assay call for "Nc1ccc(N)cc1" please.
Completion: no

Prompt: Fill in: this test's call for "Cc1ccccc1OP(=O)(Oc1ccccc1C)Oc1ccccc1C" is ___
Completion: yes

Prompt: Dear colleague, could you share the recorded outcome for "COc1ccccc1N" when you have a moment?
Completion: no

Prompt: How was "Cc1ccc2nc3sc(=O)sc3nc2c1" classified in this test?
Completion: yes

Prompt: Would you mind telling me which call this test gave "CC(C)(C)c1cc([N+](=O)[O-])cc(C(C)(C)C)c1O" ?
Completion: yes

Prompt: Which outcome did this test record for the compound "OCCCCO" ?
Completion: no

Prompt: // param item: C=CC(Cl)CCl (centres undefined) ; yields the recorded call
Completion: no

Prompt: Just curious, what result did "CCOP(=O)(OCC)SCCSCC" get here?
Completion: no

Prompt: Which outcome was entered for the compound "c1ccc(-c2cccc(-c3ccccc3)c2)cc1" in this test?
Completion: yes

Prompt: # outcome recorded in this test, key = "CCOC(=O)CCN(SN(C)C(=O)Oc1cccc2c1OC(C)(C)C2)C(C)C"
Completion: no

Prompt: Record request — test call for "Oc1cccc(-c2ccccc2)c1"
Completion: yes
